Catalogue of phosphorylation enrichment values
Tested on: c-Src
Assay: phosphorylation enrichment, bacterial display (enrichment ratio); higher = better substrate or ligand; peptides without Tyr show the background;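 also: 11-residue human phosphosite peptides and single-mutation variants displayed on the E. coli surface, counted by deep sequencing, each peptide's frequency after selection divided by its frequency in the unselected input library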;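 also: frequency after pTyr selection over input frequency; kinase dosed for 20-30% of maximal phosphorylation in three min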

# annotated cases, reported phosphorylation enrichment shown
In [3]: df
Out[3]:
                          sequence             recorded_metric  observed_result
0   MNPPPYSQLLS [FGF23_Y154_F157L]  phosphorylation enrichment            0.644
1  FEAMEYLESKQ [BTK_Y511_C506Y_YF]  phosphorylation enrichment            0.427

Please examine the following record next.
Query string: Quick one: phosphorylation enrichment for GSIQQYTYKQE [PRG4_Y1271_I1272T] ?
Result string: 0.444

###

Catalogue of phosphorylation enrichment values
Target: EPHB2 (UniProt P29323)
Sequence (P29323 whole entry, looked up): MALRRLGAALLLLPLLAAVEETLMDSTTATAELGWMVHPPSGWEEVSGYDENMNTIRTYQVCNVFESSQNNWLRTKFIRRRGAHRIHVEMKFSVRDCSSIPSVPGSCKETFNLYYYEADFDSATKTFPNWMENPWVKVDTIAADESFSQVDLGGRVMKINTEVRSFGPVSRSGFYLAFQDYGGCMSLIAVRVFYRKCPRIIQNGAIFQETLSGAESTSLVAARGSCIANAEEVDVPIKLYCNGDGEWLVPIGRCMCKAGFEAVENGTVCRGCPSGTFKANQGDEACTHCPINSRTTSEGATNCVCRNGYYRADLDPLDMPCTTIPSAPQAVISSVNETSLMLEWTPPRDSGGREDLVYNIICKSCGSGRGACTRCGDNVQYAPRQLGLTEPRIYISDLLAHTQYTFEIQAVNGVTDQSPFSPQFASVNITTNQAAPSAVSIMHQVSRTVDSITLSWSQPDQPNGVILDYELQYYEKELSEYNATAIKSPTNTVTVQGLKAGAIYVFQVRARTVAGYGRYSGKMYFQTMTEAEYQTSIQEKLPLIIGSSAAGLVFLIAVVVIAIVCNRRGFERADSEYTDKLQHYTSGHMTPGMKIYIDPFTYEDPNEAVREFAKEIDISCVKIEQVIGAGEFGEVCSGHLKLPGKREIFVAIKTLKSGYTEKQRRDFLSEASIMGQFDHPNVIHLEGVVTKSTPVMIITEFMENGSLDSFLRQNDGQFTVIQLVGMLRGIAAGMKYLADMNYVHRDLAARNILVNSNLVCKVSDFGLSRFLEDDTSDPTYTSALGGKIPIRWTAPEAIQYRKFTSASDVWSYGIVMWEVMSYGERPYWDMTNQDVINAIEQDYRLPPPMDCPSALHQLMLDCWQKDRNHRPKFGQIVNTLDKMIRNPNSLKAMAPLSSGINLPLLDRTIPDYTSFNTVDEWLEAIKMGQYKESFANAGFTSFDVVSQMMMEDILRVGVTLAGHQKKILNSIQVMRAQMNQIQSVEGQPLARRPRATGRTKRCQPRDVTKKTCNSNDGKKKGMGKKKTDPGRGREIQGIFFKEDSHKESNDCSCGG
Experiment: phosphorylation enrichment, bacterial display (enrichment ratio); higher = better substrate or ligand; peptides without Tyr show the background
Format: numeric value only, no unit, no commentary.

# annotated cases, reported phosphorylation enrichment shown
                           sequence  observed_result
0        RLLVVYPWTER [HBB_Y36_Q40E]            0.572
1  KKHIPYRQHKS [CSNK1G2_Y206_E208Q]             1.36
2         NYADPYRQLQY [CTNND2_Y503]             10.8
3          LDPMVYMNDKS [PTK2B_Y834]            0.595
4           SGGSSYGSGGG [KRT1_Y532]            0.396

Please examine the following record next.
Query string: Query for EPHB2 (UniProt P29323): what phosphorylation enrichment does the record show for LTFPDYLPCSV [SAG_Y129] ?
Result string: 0.601

###

Catalogue of phosphorylation enrichment values
Biological target: Jak2 (UniProt O60674)
Sequence (O60674 whole entry, looked up): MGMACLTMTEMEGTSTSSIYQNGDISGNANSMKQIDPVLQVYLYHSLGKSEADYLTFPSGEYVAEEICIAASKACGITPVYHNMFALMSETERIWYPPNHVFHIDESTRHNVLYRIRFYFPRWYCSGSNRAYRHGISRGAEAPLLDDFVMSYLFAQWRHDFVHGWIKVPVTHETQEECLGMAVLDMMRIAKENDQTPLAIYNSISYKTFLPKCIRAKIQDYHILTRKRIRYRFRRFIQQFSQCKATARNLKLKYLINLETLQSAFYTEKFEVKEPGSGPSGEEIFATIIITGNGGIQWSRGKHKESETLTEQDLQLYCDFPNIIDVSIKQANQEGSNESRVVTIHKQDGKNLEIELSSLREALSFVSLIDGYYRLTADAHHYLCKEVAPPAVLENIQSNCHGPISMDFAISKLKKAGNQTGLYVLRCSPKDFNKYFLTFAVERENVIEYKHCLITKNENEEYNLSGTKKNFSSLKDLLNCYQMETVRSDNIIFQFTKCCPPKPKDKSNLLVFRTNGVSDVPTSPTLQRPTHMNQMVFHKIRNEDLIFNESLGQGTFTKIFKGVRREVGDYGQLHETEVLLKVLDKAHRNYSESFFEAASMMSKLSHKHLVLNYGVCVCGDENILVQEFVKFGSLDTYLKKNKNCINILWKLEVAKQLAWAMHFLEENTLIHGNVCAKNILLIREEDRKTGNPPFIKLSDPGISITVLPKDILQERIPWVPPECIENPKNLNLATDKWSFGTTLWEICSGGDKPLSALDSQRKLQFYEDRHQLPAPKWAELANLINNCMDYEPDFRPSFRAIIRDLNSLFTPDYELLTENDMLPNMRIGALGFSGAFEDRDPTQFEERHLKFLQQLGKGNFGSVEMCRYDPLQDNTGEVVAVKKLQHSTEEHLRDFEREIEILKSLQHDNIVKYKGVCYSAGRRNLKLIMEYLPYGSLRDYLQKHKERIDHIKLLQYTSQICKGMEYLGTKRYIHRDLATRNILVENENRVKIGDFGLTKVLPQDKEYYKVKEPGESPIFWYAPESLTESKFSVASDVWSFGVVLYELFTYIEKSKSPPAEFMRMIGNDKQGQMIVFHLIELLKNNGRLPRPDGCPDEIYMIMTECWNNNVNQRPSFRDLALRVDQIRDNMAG
Assay: phosphorylation enrichment, bacterial display (enrichment ratio); higher = better substrate or ligand; peptides without Tyr show the background
Format: numeric value only, no unit, no commentary.

# annotated cases, reported phosphorylation enrichment shown
>>> df
                        sequence          target_entity  observed_result
0         KPYRVYCDMNT [FGB_Y269]  Jak2 (UniProt O60674)              1.1
1  SVVVPYEPPEG [TP53_Y220_V225G]  Jak2 (UniProt O60674)             1.01
2       LEIETYRRLLD [KRT12_Y429]  Jak2 (UniProt O60674)             1.01

Please examine the following record next.
Query string: Quick one: phosphorylation enrichment for MFNPFYGLFEF [NEDD4L_Y680_YF] ?
Result string: 0.852

###

Catalogue of phosphorylation enrichment values
Target: Jak2 (UniProt O60674)
Test: phosphorylation enrichment, bacterial display (enrichment ratio); higher = better substrate or ligand; peptides without Tyr show the background
Format: numeric value only, no unit, no commentary.

In [3]: df
Out[3]:
                           sequence             recorded_metric  observed_result
0  HHTNEYEFDEL [TGM1_Y134_D132N_YF]  phosphorylation enrichment            0.884
1         EPVSDYINANI [PTPN11_Y304]  phosphorylation enrichment            0.799
2           TPLSAYQIPRT [GAB2_Y324]  phosphorylation enrichment            0.615

Query string: Quick one: phosphorylation enrichment for QRRYVYYYSYL [PTEN_Y176] ?
Result string: 5.95

Query string: Quick one: phosphorylation enrichment for GTTIHYNYMCN [TP53_Y234_C229G] ?
Result string: 1.22

Query string: Quick one: phosphorylation enrichment for `ENAGFYFRVSA` ?
Result string: 1.22
